meta.source: patent US9580413B2

Known IC50 of a selection of compounds
target entity: ROS tyrosine kinase (Homo sapiens)
Sequence (P08922 28-2347): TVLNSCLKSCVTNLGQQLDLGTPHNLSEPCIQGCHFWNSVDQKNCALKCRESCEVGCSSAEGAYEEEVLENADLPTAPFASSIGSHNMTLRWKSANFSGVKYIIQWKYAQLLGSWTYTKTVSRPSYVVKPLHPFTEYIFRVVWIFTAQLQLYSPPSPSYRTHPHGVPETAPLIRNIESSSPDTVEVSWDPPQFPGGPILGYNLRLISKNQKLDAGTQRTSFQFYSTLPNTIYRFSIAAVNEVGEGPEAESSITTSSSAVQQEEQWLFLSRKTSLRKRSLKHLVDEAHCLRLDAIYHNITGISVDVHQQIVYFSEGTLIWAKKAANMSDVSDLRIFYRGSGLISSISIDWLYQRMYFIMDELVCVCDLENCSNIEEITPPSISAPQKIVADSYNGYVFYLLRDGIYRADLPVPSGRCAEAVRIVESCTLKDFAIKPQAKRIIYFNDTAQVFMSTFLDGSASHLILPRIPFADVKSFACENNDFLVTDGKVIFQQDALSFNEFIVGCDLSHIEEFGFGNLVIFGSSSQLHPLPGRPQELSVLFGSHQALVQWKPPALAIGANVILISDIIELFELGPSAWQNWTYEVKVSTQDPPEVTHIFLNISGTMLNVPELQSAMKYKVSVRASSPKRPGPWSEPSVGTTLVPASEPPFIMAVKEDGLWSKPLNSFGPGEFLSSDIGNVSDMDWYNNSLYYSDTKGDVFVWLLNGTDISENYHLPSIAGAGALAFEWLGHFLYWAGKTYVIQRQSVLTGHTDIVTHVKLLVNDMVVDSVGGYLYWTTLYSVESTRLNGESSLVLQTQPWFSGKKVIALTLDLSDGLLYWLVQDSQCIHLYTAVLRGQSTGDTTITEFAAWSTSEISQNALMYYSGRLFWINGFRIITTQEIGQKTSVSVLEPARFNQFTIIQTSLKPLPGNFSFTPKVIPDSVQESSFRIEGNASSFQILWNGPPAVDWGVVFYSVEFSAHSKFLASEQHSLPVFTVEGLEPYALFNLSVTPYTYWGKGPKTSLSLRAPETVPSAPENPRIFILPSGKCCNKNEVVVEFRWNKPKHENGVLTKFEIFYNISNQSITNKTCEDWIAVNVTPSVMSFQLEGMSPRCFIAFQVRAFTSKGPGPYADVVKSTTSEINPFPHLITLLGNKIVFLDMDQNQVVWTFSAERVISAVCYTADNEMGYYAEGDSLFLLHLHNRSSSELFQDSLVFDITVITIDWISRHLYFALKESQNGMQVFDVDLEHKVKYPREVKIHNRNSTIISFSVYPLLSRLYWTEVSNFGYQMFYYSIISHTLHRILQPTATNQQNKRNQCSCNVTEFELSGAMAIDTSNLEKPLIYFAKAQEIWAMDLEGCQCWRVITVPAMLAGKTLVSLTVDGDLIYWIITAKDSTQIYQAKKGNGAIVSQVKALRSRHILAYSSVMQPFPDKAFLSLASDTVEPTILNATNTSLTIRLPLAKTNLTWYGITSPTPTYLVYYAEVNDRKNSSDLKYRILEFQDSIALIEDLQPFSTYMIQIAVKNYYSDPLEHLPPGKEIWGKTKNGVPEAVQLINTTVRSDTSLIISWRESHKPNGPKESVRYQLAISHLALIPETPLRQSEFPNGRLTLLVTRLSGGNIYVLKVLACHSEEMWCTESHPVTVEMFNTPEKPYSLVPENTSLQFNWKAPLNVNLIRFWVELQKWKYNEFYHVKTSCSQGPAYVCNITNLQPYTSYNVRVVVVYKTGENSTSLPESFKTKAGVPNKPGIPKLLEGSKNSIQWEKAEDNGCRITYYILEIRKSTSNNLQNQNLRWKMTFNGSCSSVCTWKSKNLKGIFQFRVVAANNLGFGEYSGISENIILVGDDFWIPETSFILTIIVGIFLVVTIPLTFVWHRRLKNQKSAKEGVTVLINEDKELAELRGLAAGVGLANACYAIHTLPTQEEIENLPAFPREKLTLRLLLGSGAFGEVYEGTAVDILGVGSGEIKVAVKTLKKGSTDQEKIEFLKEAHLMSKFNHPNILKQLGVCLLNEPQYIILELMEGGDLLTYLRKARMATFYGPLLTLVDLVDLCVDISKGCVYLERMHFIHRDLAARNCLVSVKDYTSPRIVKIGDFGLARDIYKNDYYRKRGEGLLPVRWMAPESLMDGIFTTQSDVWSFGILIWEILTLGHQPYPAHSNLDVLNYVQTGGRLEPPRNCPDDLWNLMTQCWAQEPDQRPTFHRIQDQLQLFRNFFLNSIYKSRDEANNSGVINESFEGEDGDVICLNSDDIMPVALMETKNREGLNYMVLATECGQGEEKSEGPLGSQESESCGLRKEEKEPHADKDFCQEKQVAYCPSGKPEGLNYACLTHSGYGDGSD
Structures can show the parent of a compound that is named as a salt.
readout label: IC50

compound="COc1ccccc1C1CCCN1c1cnc(C2CC2)c(Nc2ncc(C#N)s2)n1 (centres unmarked) [Example 24]" readout_label=IC50 test_result="6.6 nM"
compound="Cc1ccc([C@@H]2CCCN2c2cnc(C3CC3)c(Nc3ncc(C)s3)n2)cc1 [Example 34]" readout_label=IC50 test_result="4.1 nM"
compound="COc1c(Nc2ncc(C#N)s2)nc(N2CCCC2c2ccc(C)cc2)nc1-c1ccc(S(C)(=O)=O)cc1 (centres unmarked) [Example 13]" readout_label=IC50 test_result="44 nM"
compound="Cc1ccc(C2CCCN2c2nc(Nc3ncc(C#N)s3)c(C)c(-c3ccc(O)nc3)n2)cc1 (centres unmarked) [Example 16]" readout_label=IC50 test_result="1.5 nM"
compound="COc1c(Nc2ncc(C#N)s2)nc(N2CCC[C@H]2c2ccc(C)cc2)nc1C(=O)N[C@H]1CC[C@H](C(=O)O)CC1 [Example 63]" readout_label=IC50 test_result="0.3 nM"
compound="COc1c(Nc2ncc(C#N)s2)nc(N2CCCC2c2ccc(C)cc2)nc1-c1ccc(F)nc1 (centres unmarked) [Example 50]" readout_label=IC50 test_result="12 nM"
compound="COc1c(Nc2ncc(C#N)s2)nc(N2CCCC2c2ccc(C)cc2)nc1-c1cnco1 (centres unmarked) [Example 11]" readout_label=IC50 test_result="2.7 nM"
compound="COc1cc(OC)cc(C2CCCN2c2cncc(Nc3ncc(C#N)s3)n2)c1 (centres unmarked) [Example 32]" readout_label=IC50 test_result="4.4 nM"
compound="Cc1ccc([C@@H]2CCCN2c2cc(C(=O)N[C@H]3CC[C@H](O)CC3)c(C)c(Nc3ncc(C#N)s3)n2)cc1 [Example 68]" readout_label=IC50 test_result="0.76 nM"
compound="Cc1ccc(C2CCCN2c2nc(Nc3ncc(C#N)s3)cc(C(=O)O)n2)cc1 (centres unmarked) [Example 7]" readout_label=IC50 test_result="0.6 nM"
compound="Cc1ccc([C@@H]2CCCN2c2cnc(C)c(Nc3ncc(C#N)s3)n2)cc1 [Example 20, hydrochloride]" readout_label=IC50 test_result="1.1 nM"
